Where do these numbers come from? They come from patent US20250049798A1.

target: HiBiT tagged Wee1 (Homo sapiens); experiment: Wee1 protein degradation assay (HiBiT assay); type: cell-based; conditions: engineered HT-1080 cells, 20 hours
Sequence (P30291 whole entry): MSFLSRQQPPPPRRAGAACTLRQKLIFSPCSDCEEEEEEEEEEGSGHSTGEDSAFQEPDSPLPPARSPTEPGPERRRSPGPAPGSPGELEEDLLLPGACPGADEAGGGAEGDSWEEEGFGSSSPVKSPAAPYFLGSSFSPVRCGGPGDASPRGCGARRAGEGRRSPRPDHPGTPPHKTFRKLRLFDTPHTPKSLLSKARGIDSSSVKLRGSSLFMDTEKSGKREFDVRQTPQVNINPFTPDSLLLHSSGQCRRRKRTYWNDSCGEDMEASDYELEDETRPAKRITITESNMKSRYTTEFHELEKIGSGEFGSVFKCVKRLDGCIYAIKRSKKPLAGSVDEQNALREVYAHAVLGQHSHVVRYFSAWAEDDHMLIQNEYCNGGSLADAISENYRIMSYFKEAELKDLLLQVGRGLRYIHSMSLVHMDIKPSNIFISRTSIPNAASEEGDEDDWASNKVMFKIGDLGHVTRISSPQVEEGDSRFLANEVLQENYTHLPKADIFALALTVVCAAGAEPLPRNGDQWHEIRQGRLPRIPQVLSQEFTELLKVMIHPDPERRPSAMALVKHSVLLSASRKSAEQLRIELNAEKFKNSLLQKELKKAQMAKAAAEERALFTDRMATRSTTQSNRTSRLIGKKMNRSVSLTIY
# maps each entry to its DC50

>  <COMPOUND>
C=CCn1c(=O)c2cnc(Nc3ccc(C4CCN(C[C@H]5CCN(c6ccc7c(c6)C(=O)N(C6CCC(=O)NC6=O)C7=O)C5)CC4)cc3)nc2n1-c1cccc(C(C)(C)O)n1 (stereo partly drawn)

>  <SUBJECT_OF_TEST>
HiBiT tagged Wee1 (Homo sapiens)

>  <DC50>
< 100 nM

$$$$
>  <COMPOUND>
C=CCn1c(=O)c2cnc(Nc3ccc(C4CCN(CC5CCN(c6ccc7c(c6)C(=O)N(C6CCC(=O)NC6=O)C7=O)CC5)CC4)cc3)nc2n1-c1cccc(C(C)(C)O)n1 (stereo not drawn)

>  <SUBJECT_OF_TEST>
HiBiT tagged Wee1 (Homo sapiens)

>  <DC50>
< 100 nM

$$$$
>  <COMPOUND>
C=CCn1c(=O)c2cnc(Nc3ccc(C4CCN(CC5CN(c6ccc7c(c6)C(=O)N(C6CCC(=O)NC6=O)C7=O)C5)CC4)cc3)nc2n1-c1cccc(C(C)(C)O)n1 (stereo not drawn)

>  <SUBJECT_OF_TEST>
HiBiT tagged Wee1 (Homo sapiens)

>  <DC50>
< 100 nM

$$$$
>  <COMPOUND>
C=CCn1c(=O)c2cnc(Nc3ccc4c(c3)CN(CCCCc3cccc5c3CN(C3CCC(=O)NC3=O)C5=O)CC4)nc2n1-c1cccc(C(C)(C)O)n1 (stereo not drawn)

>  <SUBJECT_OF_TEST>
HiBiT tagged Wee1 (Homo sapiens)

>  <DC50>
> 1000 nM

$$$$
>  <COMPOUND>
CN1CN(c2c(Cl)cccc2Cl)C(=O)c2cnc(Nc3ccc(N4CCN(CCCNc5cccc6c5C(=O)N(C5CCC(=O)NC5=O)C6=O)CC4)cc3)nc21 (stereo not drawn)

>  <SUBJECT_OF_TEST>
HiBiT tagged Wee1 (Homo sapiens)

>  <DC50>
> 1000 nM

$$$$
>  <COMPOUND>
C=CCn1c(=O)c2cnc(Nc3ccc(N4CCC(CN5CCN(c6ccc(NC7CCC(=O)NC7=O)cc6)CC5)CC4)cc3)nc2n1-c1cccc(C(C)(C)O)n1 (stereo not drawn)

>  <SUBJECT_OF_TEST>
HiBiT tagged Wee1 (Homo sapiens)

>  <DC50>
< 100 nM

$$$$
>  <COMPOUND>
C=CCn1c(=O)c2cnc(Nc3ccc(N4CCC(N(C)C5CCN(c6cccc7c6n(C)c(=O)n7C6CCC(=O)NC6=O)CC5)CC4)cc3)nc2n1-c1cccc(C(C)(C)O)n1 (stereo not drawn)

>  <SUBJECT_OF_TEST>
HiBiT tagged Wee1 (Homo sapiens)

>  <DC50>
< 100 nM

$$$$
>  <COMPOUND>
C=CCn1c(=O)c2cnc(Nc3ccc(N4CCC(CN5CCC(c6ccc7c(N8CCC(=O)NC8=O)nn(C)c7c6)C(F)(F)C5)CC4)cc3)nc2n1-c1ccc2c(n1)[C@@](O)(CC)CC2 (stereo partly drawn)

>  <SUBJECT_OF_TEST>
HiBiT tagged Wee1 (Homo sapiens)

>  <DC50>
< 100 nM

$$$$
>  <COMPOUND>
C=CCn1c(=O)c2cnc(Nc3ccc(N4CCC(N5CC6(CN(c7ccc(NC8CCC(=O)NC8=O)cc7F)C6)C5)CC4)cc3)nc2n1-c1ccc2c(n1)[C@@](O)(CC)CC2 (stereo partly drawn) [Compound 156]

>  <SUBJECT_OF_TEST>
HiBiT tagged Wee1 (Homo sapiens)

>  <DC50>
< 100 nM

$$$$
>  <COMPOUND>
C=CCn1c(=O)c2cnc(Nc3ccc(N4CCN(CCCCc5cccc6c5CN(C5CCC(=O)NC5=O)C6=O)CC4)cc3)nc2n1-c1cccc(C(C)(C)O)n1 (stereo not drawn)

>  <SUBJECT_OF_TEST>
HiBiT tagged Wee1 (Homo sapiens)

>  <DC50>
< 100 nM

$$$$
>  <COMPOUND>
Cc1cc(Nc2ncc3c(n2)N(C)CN(c2c(Cl)cccc2Cl)C3=O)ccc1N1CCC(CN2CCC(c3ccc4c(c3)C(=O)N(C3CCC(=O)NC3=O)C4=O)CC2)CC1 (stereo not drawn)

>  <SUBJECT_OF_TEST>
HiBiT tagged Wee1 (Homo sapiens)

>  <DC50>
> 1000 nM

$$$$
>  <COMPOUND>
C=CCn1c(=O)c2cnc(Nc3ccc(N4CCN(CCC5CCN(C(=O)c6ccc(OC)c(N7CCC(=O)NC7=O)c6)CC5)CC4)cc3)nc2n1-c1cccc(C(C)(C)O)n1

>  <SUBJECT_OF_TEST>
HiBiT tagged Wee1 (Homo sapiens)

>  <DC50>
> 1000 nM

$$$$
>  <COMPOUND>
C=CCn1c(=O)c2cnc(Nc3ccc(N4CCN(CCCOc5ccc6c(c5)C(=O)N(C5CCC(=O)NC5=O)C6=O)CC4)cc3)nc2n1-c1cccc(C(C)(C)O)n1 (stereo not drawn)

>  <SUBJECT_OF_TEST>
HiBiT tagged Wee1 (Homo sapiens)

>  <DC50>
< 100 nM

$$$$
>  <COMPOUND>
O=C1CCC(N2C(=O)c3ccc(N4CC(N5CCC(c6ccc(Nc7ncc8c(=O)n(-c9c(Cl)cccc9Cl)c9nccn9c8n7)cc6)CC5)C4)cc3C2=O)C(=O)N1 (stereo not drawn)

>  <SUBJECT_OF_TEST>
HiBiT tagged Wee1 (Homo sapiens)

>  <DC50>
> 1000 nM

$$$$
>  <COMPOUND>
C=CCn1c(=O)c2cnc(Nc3ccc(N4CCN(CC5CCN(c6ccc(NC7CCC(=O)NC7=O)cc6F)CC5)CC4)cc3)nc2n1-c1ccc2c(n1)[C@](C)(O)CC2 (single isomer, unassigned) [Compound 152-B]

>  <SUBJECT_OF_TEST>
HiBiT tagged Wee1 (Homo sapiens)

>  <DC50>
< 100 nM

$$$$
>  <COMPOUND>
C=CCn1c(=O)c2cnc(Nc3ccc(N4CCN(CC5CCN(c6ccc(NC7CCC(=O)NC7=O)cc6F)CC5)CC4)c(Cl)c3)nc2n1-c1ccc2c(n1)[C@@](O)(CC)CC2 (stereo partly drawn)

>  <SUBJECT_OF_TEST>
HiBiT tagged Wee1 (Homo sapiens)

>  <DC50>
< 100 nM

$$$$
>  <COMPOUND>
C=CCn1c(=O)c2cnc(Nc3ccc(N4CCN(CC5CCN(c6ccc(NC7CCC(=O)NC7=O)cc6F)CC5)CC4)cc3)nc2n1-c1cccc(C(C)(C)O)n1 (stereo not drawn)

>  <SUBJECT_OF_TEST>
HiBiT tagged Wee1 (Homo sapiens)

>  <DC50>
< 100 nM

$$$$
>  <COMPOUND>
C=CCn1c(=O)c2cnc(Nc3ccc(N4CCC(CN5CCN(c6cccc7c(N8CCC(=O)NC8=O)nn(C)c67)CC5)CC4)cc3)nc2n1-c1cccc(C(C)(C)O)n1

>  <SUBJECT_OF_TEST>
HiBiT tagged Wee1 (Homo sapiens)

>  <DC50>
100 to 1000 nM

$$$$
>  <COMPOUND>
Cc1cc(Nc2ncc3c(n2)N(C)CN(c2c(Cl)cccc2Cl)C3=O)ccc1C1CCN(CC2CN(c3ccc4c(c3)C(=O)N(C3CCC(=O)NC3=O)C4=O)C2)CC1 (stereo not drawn)

>  <SUBJECT_OF_TEST>
HiBiT tagged Wee1 (Homo sapiens)

>  <DC50>
> 1000 nM

$$$$
>  <COMPOUND>
C=CCn1c(=O)c2cnc(Nc3ccc(N4CCN(CC5CCN(c6ccc(NC7CCC(=O)NC7=O)cc6F)CC5)CC4)cc3)nc2n1-c1cccc(C(C)(C)C)n1 (stereo not drawn)

>  <SUBJECT_OF_TEST>
HiBiT tagged Wee1 (Homo sapiens)

>  <DC50>
< 100 nM

$$$$
>  <COMPOUND>
C=CCn1c(=O)c2cnc(Nc3ccc(N4CCC(CN5CCC(c6ccc(NC7CCC(=O)NC7=O)cc6F)CC5)CC4)cc3)nc2n1-c1cccc(C(C)(C)O)n1 (stereo not drawn)

>  <SUBJECT_OF_TEST>
HiBiT tagged Wee1 (Homo sapiens)

>  <DC50>
< 100 nM

$$$$
